# Target Entity: human PD-1 / PD-L1-Ig binding on Jurkat cell line over-expressing human PD-1 (Jurkat-PD-1) (Homo sapiens, UniProt Q15116)
# Construct: expressed in transfected cells; host or cells: Jurkat
# Sequence (Q15116 25-288): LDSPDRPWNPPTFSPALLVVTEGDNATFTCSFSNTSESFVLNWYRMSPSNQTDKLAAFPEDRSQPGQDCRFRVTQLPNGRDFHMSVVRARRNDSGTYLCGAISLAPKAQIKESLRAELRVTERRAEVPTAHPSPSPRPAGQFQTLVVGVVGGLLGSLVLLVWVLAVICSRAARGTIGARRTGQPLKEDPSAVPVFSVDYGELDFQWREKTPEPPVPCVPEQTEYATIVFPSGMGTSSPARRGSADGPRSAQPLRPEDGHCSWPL
# Experiment Notes: Jurkat-PD-1 Cell Binding High-Content Screening Assay (CBA)
# Type: cell-based
# Run Conditions: Jurkat-PD-1 cells, PE-labeled PD-L1-Ig 20 nM final; read-out: Jurkat HPD1_PDL1 IC50
Catalogue of pIC50 values
pIC50 here is simply -log10 of the concentration when that concentration is written in mol/L.

Given the compound "CCCC[C@H]1NC(=O)[C@H](CCCN)NC(=O)[C@H](C(C)C)NC(=O)[C@H](Cc2ccc(-c3ccccc3)cc2)NC(=O)[C@H](C(C)C)NC(=O)[C@H](Cc2c[nH]c3ccccc23)NC(=O)[C@H](CC(=O)O)NC(=O)[C@H](Cc2ccncc2)NC(=O)[C@H](Cc2ccc(OCC(=O)O)cc2)NC(=O)CSC[C@@H](C(=O)N[C@@H](C)C(N)=O)NC(=O)[C@H]([C@@H](C)O)NC(=O)[C@H](C(C)C)NC(=O)[C@H](CC2CCCCC2)NC(=O)[C@H](CCN)NC1=O" , write its reported pIC50.
7.46

Consider the additional compound presented here.
Given the compound "CC(C)C[C@H]1NC(=O)[C@H](CCCN)NC(=O)[C@H](CCC(=O)O)NC(=O)[C@H](Cc2ccc(-c3ccccc3)cc2)NC(=O)[C@H](C(C)C)NC(=O)[C@H](Cc2cccc(C(F)(F)F)c2)NC(=O)[C@H](CC(=O)O)NC(=O)[C@H](Cc2ccc(OCC(=O)O)cc2)NC(=O)[C@H](CN)NC(=O)CSC[C@@H](C(=O)N[C@@H](C)C(N)=O)NC(=O)[C@H]([C@@H](C)O)NC(=O)[C@H](C(C)C)NC(=O)[C@H](CC2CCCCC2)NC(=O)[C@H](CCN)NC1=O" , write its reported pIC50.
7.75
